assay: LOU064 levels in blood, RPA study; assay type: in vivo, mice; details: female, C57BI6, mouse, whole blood, oral; 30 mg/Kg single p.o., 5 hours after dosing, Mean ± SD
readout.label: concentration at 5 h (nM)
Write the number in nM without appending the unit.

[in] What value of measured concentration at 5 h is listed for C=CC(=O)N(C)CCOc1c(N)ncnc1-c1cc(F)cc(NC(=O)c2ccc(C3CC3)cc2F)c1C ?
[out] 25.2

====

experiment: Concentrations of LOU064 in blood, PCA study; assay type: in vivo, mice; conditions: BALB/c, mouse, whole blood, oral; 100 mg/Kg p.o., 2.5 hours after second dose, low-dose IgE sensitization, Mean ± SD (n = 5)
readout.label: concentration at 2.5 h (nM)
Write the number in nM without appending the unit.

[in] What value of measured concentration at 2.5 h is listed for C=CC(=O)N(C)CCOc1c(N)ncnc1-c1cc(F)cc(NC(=O)c2ccc(C3CC3)cc2F)c1C [LOU064] ?
[out] 488

====

assay: LOU064 levels in blood, RPA study; format: in vivo, mice; details: female, C57BI6, mouse, whole blood; single oral dose of 30 mg/kg, 5 hours post-dose, Mean ± SD (n = 5)
readout.label: concentration at 5 h (nM)
Write the number in nM without appending the unit.

[in] What value of measured concentration at 5 h is listed for C=CC(=O)N(C)CCOc1c(N)ncnc1-c1cc(F)cc(NC(=O)c2ccc(C3CC3)cc2F)c1C [LOU064] ?
[out] 28.4

====

tested on: PBMC-derived mast cells; test: FcER-induced degranulation of PBMC-derived mast cells; assay type: cell-based; settings: Homo sapiens, Mast cell; n=7 donors; read-out: IC50, degranulation of primary human PBMC-derived mast cells (β-tryptase)
readout.label: IC50
Number first, unit second.

[in] What value of measured IC50 is listed for C=CC(=O)N(C)CCOc1c(N)ncnc1-c1cc(F)cc(NC(=O)c2ccc(C3CC3)cc2F)c1C ?
[out] 5.7 nM

====

experiment: Concentrations of LOU064 in blood, PCA study; assay type: in vivo, mice; conditions: BALB/c, mouse, whole blood, oral; 30 mg/Kg p.o., 2.5 hours after second dose, low-dose IgE sensitization, Mean ± SD (n = 5)
readout.label: concentration at 2.5 h (nM)
Write the number in nM without appending the unit.

[in] What value of measured concentration at 2.5 h is listed for C=CC(=O)N(C)CCOc1c(N)ncnc1-c1cc(F)cc(NC(=O)c2ccc(C3CC3)cc2F)c1C [LOU064] ?
[out] 111
